- System: Sarcoma 180 ascites
- experimentSummary: S180a screening (Sarcoma 180 ascites tumor model), increase in life span
- Assay type: in vivo, CFW mice
- conditionSet: dose 160.00 mg/kg on day 1, vehicle water
property: %ILS (%)
Number only, in %; omit the unit.

Below, 6 molecules whose answers are already recorded.
molecule	%ILS / %
CC(C)N.CC(C)N.O=C1CP(=O)([O-])[O][Pt][O]1.[Na+] [Ex 9, Na[cis-Pt(i-PrNH2)2(phosphonoacetate)]]	15
CC(N)CN.O=C1CP(=O)(O)[O][Pt][O]1 (racemic) [Ex 10, H[Pt(pn)(phasphonoacetate)]]	-78
CC(N)CN.CCC1C(=O)[O][Pt][O]P1(=O)[O-].[Na+] (mixture of isomers) [Ex 8, Na[Pt(pn)(2-phosphonobutyrate)]]	95
N.N.O=C1[O][Pt][O]P(=O)([O-])C1c1ccccc1.[Na+] (racemic)	28
CCC(C)(C(=O)[O-])P(=O)([O-])[O-].N[C@@H]1CCCC[C@H]1N.[Na+].[Pt+2] (relative stereo)	86
CC1C(=O)[O][Pt][O]P1(=O)[O-].N.N.[Na+] (racemic) [Ex 15, Na[cis-Pt(NH3)2(2-phosphonopropionate)]]	-80

Hello, please tell me recorded %ILS for this one: NC1CCCCC1N.O=C1[O][Pt][O]P(=O)([O-])C1c1ccccc1.[Na+] (mixture of isomers)
102

Note %ILS for the molecule shown: CCCC1C(=O)[O][Pt][O]P1(=O)[O-].N.N.[Na+] (racemic) [Ex 19, Na[cis-Pt(NH3)2(2-phosphonovalerate)]]
-95

Specify reported %ILS for the molecule shown: CCCC1C(=O)[O][Pt][O]P1(=O)[O-].NC1CCCCC1N.[Na+] (mixture of isomers)
44
